Biological target: adenosine 1 receptor (Homo sapiens, UniProt P30542)
Construct: expressed in transfected cells; host or cells: CHO cells
Sequence (P30542 whole entry): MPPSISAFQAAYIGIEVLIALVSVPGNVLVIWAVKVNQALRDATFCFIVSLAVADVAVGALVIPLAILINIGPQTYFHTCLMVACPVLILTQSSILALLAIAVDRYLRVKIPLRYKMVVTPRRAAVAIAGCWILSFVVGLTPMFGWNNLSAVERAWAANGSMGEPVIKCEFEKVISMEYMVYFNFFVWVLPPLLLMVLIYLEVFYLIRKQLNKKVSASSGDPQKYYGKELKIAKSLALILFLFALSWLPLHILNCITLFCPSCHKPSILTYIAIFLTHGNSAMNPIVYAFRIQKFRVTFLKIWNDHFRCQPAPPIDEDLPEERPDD
Experiment: Agonist activity, CHO cells transfected with human adenosine receptor and CRE-SPAP reporter; forskolin-enhanced cAMP (A1)
Type: cell-based
Settings: ratio to NECA; * data are minimum values since preparation was found, after testing, to contain an inactive impurity
Experimental: (1) Agonist activity against adenosine 2a, adenosine 1 and adenosine 3 receptor subtypes. Agonist selectivity of compounds against other human adenosine receptors is determined using Chinese hamster ovary (CHO) cells transfected with the gene for the relevant human adenosine receptor following a method based on that of Castanon and Spevak, 1994. […] EC50 values for compounds may then be determined as a ratio to that of the non-selective agonist N-ethyl carboxamide adenosine (NECA).
// NB: equality with 2000 counts as Not met; only A1, EC50 as a ratio of that of NECA strictly below is Met

// known answers, use as guide
1) CCc1noc(C2OC(n3cnc4c(N)nc(NC(CO)Cc5ccccc5)nc43)C(O)C2O)n1 (centres unmarked)    Met
2) CCC(CC)Nc1nc(NC(CO)Cc2ccccc2)nc2c1ncn2C1OC(c2nc(C)no2)C(O)C1O (centres unmarked)    Not met
3) CCc1noc(C2OC(n3cnc4c(N)nc(NCCc5cn(C)cn5)nc43)C(O)C2O)n1 (centres unmarked)    Not met
4) Cc1noc([C@H]2O[C@@H](n3cnc4c(N)nc(NC5CCCC5)nc43)[C@H](O)[C@@H]2O)n1.O=CO    Met
5) CCC(CC)Nc1nc(NCCN2CCCCC2)nc2c1ncn2[C@@H]1O[C@H](c2nc(C)no2)[C@@H](O)[C@H]1O.O=CO    Not met
6) CCC(CC)Nc1nc(NC(CO)C(C)C)nc2c1ncn2C1OC(c2nc(C)no2)C(O)C1O (centres unmarked)    Not met

Regarding CCc1noc([C@H]2O[C@@H](n3cnc4c(NC(CC)CC)nc(NCCN5CCOCC5)nc43)[C@H](O)[C@@H]2O)n1.O=CO , kindly confirm whether its A1, EC50 as a ratio of that of NECA is beneath 2000.
Not met

Does the reported A1, EC50 as a ratio of that of NECA of the following compound sit strictly below 2000? CCc1noc([C@H]2O[C@@H](n3cnc4c(NC(CC)CC)nc(NCCc5ccccn5)nc43)[C@H](O)[C@@H]2O)n1.O=CO
Not met

----------
molecular target: adenosine 3 receptor (Homo sapiens, UniProt P0DMS8); construct: expressed in transfected cells; host or cells: CHO cells; assay: Agonist activity, CHO cells transfected with human adenosine receptor and CRE-SPAP reporter; forskolin-enhanced cAMP (A3); type: cell-based; details: ratio to NECA; CHO cells, SPAP readout
Sequence (P0DMS8 whole entry): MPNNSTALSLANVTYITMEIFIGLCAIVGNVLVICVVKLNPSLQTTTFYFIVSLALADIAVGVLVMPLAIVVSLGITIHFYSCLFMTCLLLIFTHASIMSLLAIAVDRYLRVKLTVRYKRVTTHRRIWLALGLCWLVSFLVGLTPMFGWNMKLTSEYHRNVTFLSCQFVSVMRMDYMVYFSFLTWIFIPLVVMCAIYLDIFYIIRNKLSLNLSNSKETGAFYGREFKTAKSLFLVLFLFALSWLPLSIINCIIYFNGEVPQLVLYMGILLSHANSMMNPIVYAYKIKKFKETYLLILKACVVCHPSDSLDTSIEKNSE
propertyName: A3, EC50 as a ratio of that of NECA

Reference set (3 entries):
1. CCc1noc(C2OC(n3cnc4c(NCC(c5ccccc5)c5ccccc5)nc(NC5CCC(N)CC5)nc43)C(O)C2O)n1.O=CO.O=CO (stereo not shown)    >383
2. CCc1noc([C@H]2O[C@@H](n3cnc4c(NCC(c5ccccc5)c5ccccc5)nc(NCCNc5ccccn5)nc43)[C@H](O)[C@@H]2O)n1.O=CO.O=CO    >130
3. CCC(CC)Nc1nc(N[C@H]2CCC[C@@H]2O)nc2c1ncn2[C@@H]1O[C@H](c2nc(C)no2)[C@@H](O)[C@H]1O.O=CO    >284

// next item, A3, EC50 as a ratio of that of NECA requested
# query: A3, EC50 as a ratio of that of NECA | item CCc1noc([C@H]2O[C@@H](n3cnc4c(NC(CC)CC)nc(NCCc5cn(C)cn5)nc43)[C@H](O)[C@@H]2O)n1.O=CO | system: adenosine 3 receptor (Homo sapiens, UniProt P0DMS8)
>289
